System Tested: S1P1 (Homo sapiens (Human), UniProt P21453)
Sequence (P21453 whole entry): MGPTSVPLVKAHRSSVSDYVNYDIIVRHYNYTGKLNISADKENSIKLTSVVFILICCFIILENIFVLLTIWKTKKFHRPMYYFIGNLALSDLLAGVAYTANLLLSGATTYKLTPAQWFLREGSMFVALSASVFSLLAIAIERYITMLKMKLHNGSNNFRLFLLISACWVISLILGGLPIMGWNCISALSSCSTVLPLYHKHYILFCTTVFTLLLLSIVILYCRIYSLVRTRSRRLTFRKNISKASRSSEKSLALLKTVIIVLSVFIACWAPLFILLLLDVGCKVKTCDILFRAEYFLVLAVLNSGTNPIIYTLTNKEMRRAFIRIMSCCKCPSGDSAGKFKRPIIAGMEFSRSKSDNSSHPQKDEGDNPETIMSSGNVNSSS
Test Method Notes: Receptor [35S] GTPγS Binding Assay, S1P1
Condition Description: membranes from S1P1/CHO cells
Assay Endpoint: pEC50
pEC50 is defined as minus the log10 of a concentration measured in mol/L.

Worked cases, pEC50 given:
Entry O=C(O)C1CN(Cc2ccc(-c3noc(COCC4(c5ccc(Cl)cc5)CCC4)n3)c(F)c2)C1 [Example 143] , system S1P1 (Homo sapiens (Human), UniProt P21453): what pEC50 was measured? 7.76

Param item: O=C(O)C1CN(Cc2ccc(-c3noc(CCCC4(c5ccccc5)CCCCC4=O)n3)cc2)C1 (stereo not shown) [Example 11] 8.66

Param item: O=C(O)C1CN(Cc2ccc(-c3noc(COCC4(c5ccc(F)cc5)CCCCC4)n3)cc2)C1 [Example 18] 9.11

Pending molecule:
Entry O=C(O)C1CN(Cc2ccc(-c3noc(C/C=C/C4(c5ccc(F)cc5)CCCCC4)n3)cc2)C1 [Example 100] , system S1P1 (Homo sapiens (Human), UniProt P21453): what pEC50 was measured? 9.39

---

System Tested: UniProt P21453
Test Method Notes: Receptor [35S] GTPγS Binding Assay, S1P1
Assay type: biochemical
Condition Description: membranes from S1P1/CHO cells
pEC50: −log10 of the molar value.
Class Criterion met: pEC50 at least 8. Class Criterion not met: pEC50 below 8.

Solved entries:
State whether the measured pEC50 reaches 8, counting equality as reaching it, for O=C(O)C1CN(Cc2ccc(-c3noc(COCC4(c5ccc(Cl)cc5)CCC4)n3)c(Cl)c2)C1 [Example 141] Criterion not met

Param item: O=C(O)C1CN(Cc2ccc(-c3noc(CCCC4(c5ccc(F)cc5)CCCCC4)n3)cc2)C1 [Example 9] Criterion met

Param item: O=C(O)C1CN(Cc2ccc(-c3noc(CCC4(c5ccc(F)cc5)CCCCC4)n3)cc2)C1 [Example 63] Criterion met

Param item: O=C(O)C1CN(Cc2ccc(-c3noc(/C=C/C4(c5ccc(Cl)cc5)CCCCC4)n3)cc2)C1 [Example 92] Criterion not met

Param item: O=C1NC(=O)C2(CN(Cc3ccc(-c4noc(COCC5(c6ccc(Cl)cc6)CCC5)n4)cc3)C2)N1 [Example 19] Criterion not met

Now, please, on to the next compound.
State whether the measured pEC50 reaches 8, counting equality as reaching it, for O=C(O)C1CN(Cc2ccc(-c3noc(C(F)(F)C(O)C4(c5ccc(Cl)cc5)CC4)n3)cc2)C1 (stereo not shown) [Example 85] Criterion not met

---

Reported pEC50 is given for each of the following compounds.
System Tested: S1P1 (Homo sapiens (Human), UniProt P21453)
Test Method Notes: Receptor [35S] GTPγS Binding Assay, S1P1
Condition Description: membranes from S1P1/CHO cells
pEC50 is defined as minus the log10 of a concentration measured in mol/L.

Suppose we examine the compound O=C(O)C1CN(Cc2ccc(-c3noc(/C=C/C4(Cc5ccccc5)CCC4)n3)cc2)C1 ; what pEC50 value has been reported? 7.77

Param item: O=C(O)C1CN(Cc2ccc(-c3noc(CCCC4(c5ccc(Cl)cc5)CCCCC4)n3)cc2)C1 9.15

Param item: Cc1cc(-c2noc(CCC3(c4ccc(F)cc4)CCCCC3)n2)cc(C)c1OC[C@@H](O)CO 9.29

Pending compound:
Suppose we examine the compound O=C(O)C1CN(Cc2ccc(-c3noc(CCC4(c5cccnc5)CCOCC4)n3)cc2)C1 ; what pEC50 value has been reported? 5.13
